Experiment: qHTS assay for small molecule agonists of the antioxidant response element (ARE) signaling pathway measured by Nrf2-dependant transcriptional activity (AID 720636);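 further: HepG2 cells with an ARE-driven luciferase reporter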
Conditions: ARE-luc HepG2, Nrf2 luciferase reporter, 16 h; series mostly up to 92.4 µM
Records with an inconclusive call do not appear. Activity calls are given as the source filed them. The call rests on the fitted dose curve; in most records, active means well fitted activation curve with a large enough effect in the repeat runs; inconclusive means weak or mixed curves; inactive means flat fitted curve, though single readings scatter.
parameterMeasured: outcome

Record excerpt, results attached:
# compound, outcome
data = [
    ("O=Cc1cccc(Oc2ccccc2)c1", "inactive"),
    ("CCCCCCCCCCCC#N", "inactive"),
    ("CC(=NC#N)N(C)Cc1ccc(Cl)nc1", "inactive"),
    ("C(=NC1CCCCC1)=NC1CCCCC1", "inactive"),
    ("CCC[CH2][Sn]([Cl])([Cl])[CH2]CCC", "inactive"),
]

Prompt: Input "CC(C)OC(=O)C(O)(c1ccc(Br)cc1)c1ccc(Br)cc1" , output reported outcome.
Completion: inactive

Prompt: Input CCCCC(CC)COC(=O)Cl (configuration not stated) , output reported outcome.
Completion: inactive

* * *

Test system: CP201
Assay: qHTS profiling for inhibitors of Plasmodium falciparum proliferation (AID 504749); further: nearly all actives have a fitted effect of over 60% in size
Settings: P. falciparum in erythrocytes, SYBR Green DNA, 72 h; series mostly up to 28.7 µM
Inconclusive results are not listed. Calls of active or inactive are those of the source. Calls follow the shape of the dose curve; as a rule, active = well fitted inhibition curve with a large enough effect; inconclusive = small, poorly fitted or top-dose-only effect; inactive = flat fitted curve, though single readings scatter.
API: response.call in active, inactive

Completed entries (count: 2):
# compound, classAssignment
rows = [
    ("C=C1CC2C(CC[C@]3(C)C(=O)CCC23)[C@]2(C)C=CC(=O)C=C12 (some centres not stated)", "inactive"),
    ("CCCCCc1cc(O)c2c(c1)OC(C)(C)C1CC=C(C)CC21 (configuration not stated)", "active"),
]

Prompt: Record request — test call for CCCCCCC(=O)O[C@H]1CC[C@H]2[C@@H]3CCC4CC(=O)C=C(C)[C@]4(C)[C@H]3CC[C@]12C (some centres not stated)
Completion: inactive

Prompt: Record request — test call for COC(C(=O)C(O)C(C)O)C1Cc2cc3cc(OC4CC(OC5CC(O)C(OC)C(C)O5)C(OC(C)=O)C(C)O4)c(C)c(O)c3c(O)c2C(=O)C1OC1CC(OC2CC(OC3CC(C)(O)C(OC(C)=O)C(C)O3)C(O)C(C)O2)C(O)C(C)O1 (configuration not stated)
Completion: active

Prompt: Record request — test call for "C#CCN1CC(=O)N(COC(=O)[C@@H]2[C@@H](C=C(C)C)C2(C)C)C1=O"
Completion: inactive

Prompt: Record request — test call for CC12CCC3C4CCC(=O)C(O)=C4CCC3C1CCC2OC(=O)CCC1CCCC1 (configuration not stated)
Completion: inactive

Prompt: Record request — test call for C#C[C@]1(O)CC[C@H]2[C@@H]3CCC4=CC(=O)CCC4(C)[C@H]3CCC21C (some centres not stated)
Completion: inactive

Prompt: Record request — test call for CC(CO)NC(=O)C1C=C2c3cccc4[nH]cc(c34)CC2N(C)C1 (configuration not stated)
Completion: inactive

Prompt: Record request — test call for C=CC[N+]1(C)CCC23c4c5ccc(O)c4O[C@H]2C(=O)CC[C@@]3(O)C1C5 (some centres not stated)
Completion: inactive

Prompt: Record request — test call for "CN(C)[C@H]1C(=O)C(C(N)=O)=C(O)[C@]2(O)C(=O)C3=C(O)c4c(O)cccc4[C@@](C)(O)[C@H]3C[C@@H]12"
Completion: inactive

Prompt: Record request — test call for NC(Cc1ccc(Oc2cc(I)c(O)c(I)c2)c(I)c1)C(=O)O (configuration not stated)
Completion: inactive

Prompt: Record request — test call for CC(=O)O[C@H]1C[C@H](O[C@H]2[C@@H](O)CC(O[C@H]3[C@@H](O)C[C@H](O[C@H]4CC[C@@]5(C)[C@H](CC[C@@H]6[C@@H]5CC[C@]5(C)[C@@H](C7=CC(=O)OC7)CC[C@]65O)C4)O[C@@H]3C)O[C@@H]2C)O[C@H](C)[C@H]1O[C@@H]1O[C@H](CO)[C@@H](O)[C@H](O)[C@H]1O (some centres not stated)
Completion: inactive

These entries and their values trace back to PubChem BioAssay (NCATS).
